# System under test: UniProt O60885
# Experiment notes: BRD4 degradation assay in EOL-1 cells, high content fluorescence imaging
# Type: cell-based
# Experimental conditions: 4 hours, BRD4 immunofluorescence, read-out: EOL-1 EC50
Value type: DC50 (nM)
Write the value in nM as a bare number.

Cc1ncsc1-c1ccc([C@]2(C)NC(C3C[C@@H](O)CN3C(=O)C(c3cc(OCCCCCNC(=O)c4cc5c(cc4CS(C)(=O)=O)-c4cn(C)c(=O)c6[nH]cc(c46)CN5c4ncc(F)cc4F)no3)C(C)C)=NC2=O)cc1 (single isomer, unassigned) [Example 1001.2] :: 0.865
Cc1ncsc1-c1ccc([C@]2(C)NC([C@@H]3C[C@@H](O)CN3C(=O)C(NC(=O)CCCCCCCCCCNC(=O)c3cc4c(cc3CS(C)(=O)=O)-c3cn(C)c(=O)c5[nH]cc(c35)CN4c3ncc(F)cc3F)C(C)(C)C)=NO2)cc1 (single isomer, unassigned) [Example 1006.1] :: 1.02

Now consider a different molecule.
Entry Cc1ncsc1-c1ccc(C2(C)NC(C3C[C@@H](O)CN3C(=O)C(c3cc(OCCN4CC[C@H](NC(=O)c5cc6c(cc5CS(C)(=O)=O)-c5cn(C)c(=O)c7[nH]cc(c57)CN6c5ncc(F)cc5F)C4)no3)C(C)C)=NC2=O)cc1 (single isomer, unassigned) [Example 1002.2] : reported DC50 = ?
0.31

The origin of these recorded values is patent US11242344B2.
